# Test system: OVCAR-3
# experimental protocol: NCI tumour cell line growth inhibition, 48 h
The source made the active and inactive calls. No stated cut-off is given here; in the data, active = GI50 up to about 1.1 µM and inactive = higher.
# GI50 values compiled below
reported endpoint: GI50

> print(dat)
                                   compound  reported.endpoint       value.observed
1  COc1ccc2nc(NC(=O)C(=O)C(C(=O)c3ccccc3-c3ccccc3)C3OC(=O)c4ccccc43)sc2c1 (configuration not stated)               GI50   18.5 µM (inactive)
2  COc1c(C(=O)/C(=N/Nc2ccc(C(=O)O)cc2)C(C)=O)c(O)cc2occc12               GI50  > 100 µM (inactive)
3  COc1cc2nc(-c3cccs3)nc(Nc3cccc(Cl)c3)c2cc1OC               GI50   52.8 µM (inactive)
4  COC(=O)c1c(OC(=O)c2ccccc2)noc1CC(=O)OC1C=CCCC1 (configuration not stated)               GI50  > 100 µM (inactive)
5                        CSc1nncc2[nH]cnc12               GI50  > 100 µM (inactive)
6  CCOC(=O)C1CCC(=O)N1C(=O)c1ccccc1Cl (configuration not stated)               GI50  > 100 µM (inactive)
7  Fc1ccc(C(OCCN2CCC3CCC(C2)N3Cc2cc3ccccc3[nH]2)c2ccc(F)cc2)cc1 (configuration not stated)               GI50   1.77 µM (inactive)

* * *

# Tested on: M14
# experimental protocol: NCI tumour cell line growth inhibition, 48 h
The source made the active and inactive calls. Rule as the data show it: active = GI50 up to about 1.1 µM and inactive = higher.
reported endpoint: GI50

> print(dat)
                                   molecule  experimental.system  reported.endpoint       value.observed
1  Cc1ccc2c(c1)OC1Nc3ccccc3C1=C2O (centres undefined)                  M14               GI50   21.5 µM (inactive)
2  CC(C)(C)n1c(=O)n(-c2ccccc2)n(C(C)(C)C)c1=O                  M14               GI50  > 100 µM (inactive)
3  C=CCNC(=S)N1CC(C)C(=O)Nc2cc(Cl)ccc21 (centres undefined)                  M14               GI50  > 100 µM (inactive)
4  N#Cc1ccccc1NC(=O)C(=O)C1NC(=S)NC1=O (centres undefined)                  M14               GI50  > 100 µM (inactive)
5  Fc1ccc(C(=C2CCN(CCc3ccc4[nH]c(=S)[nH]c4c3)CC2)c2ccc(F)cc2)cc1                  M14               GI50   1.83 µM (inactive)
6  CC1(C)C(=O)c2ccccc2OC1N1CCN(C2Oc3ccccc3C(=O)C2(C)C)CC1 (centres undefined)                  M14               GI50  > 100 µM (inactive)
7  C/C(=N\NC(=O)C[n+]1ccccc1)c1sc(-c2nc(C)c(/C(C)=N/NC(=O)C[n+]3ccccc3)s2)nc1C                  M14               GI50  > 100 µM (inactive)
8  Cc1cnc(NCCCN(C)C)c2c1[nH]c1ccc3cc(O)ccc3c12                  M14               GI50   1.28 µM (inactive)
9        O=C1CCC2CCC1C2 (centres undefined)                  M14               GI50  > 100 µM (inactive)

* * *

# Tested on: RXF 393
# experimental protocol: NCI tumour cell line growth inhibition, 48 h
Calls of active or inactive are those of the source. Rule as the data show it: active = GI50 up to about 1.1 µM and inactive = higher.
Classes used: TRUE for active, FALSE for inactive

> print(dat)
                                    compound  discrete.label
 1  O=C(CCc1ccccc1)On1c(-c2ccccc2)nc2ccccc2c1=S           FALSE
 2  COC1N(C2CC(O)C(CO)O2)C(=O)NC(=O)C1(F)Br (stereo not drawn)           FALSE
 3  CC(C)=C1CCC(CN2CCOCC2)C1=O (stereo not drawn)           FALSE
 4  CCCCC(C(=O)CCC(=O)Nc1ccc(Cl)c(Cl)c1)C(=O)C(C)C (stereo not drawn)           FALSE
 5  CC[C@@H]1C[C@H]2CC3c4[nH]c5ccc(O)cc5c4CCN(C2)C31           FALSE
 6  O=C1C(NS(=O)(=O)c2ccccc2)=C(n2cnc3ccccc32)C(=O)c2ccccc21           FALSE
 7              COC(=O)Nc1nc2cc(Br)ccc2[nH]1           FALSE
 8  O=C(O)CNS(=O)(=O)c1ccc(NC(=O)Nc2ccccc2)cc1           FALSE
 9  CCOC(=O)C1=C(C)C2C=C(c3cccs3)CC(c3ccc(Cl)cc3)=C2OC1=O (stereo not drawn)           FALSE
10  Cc1nnc(S(=O)(=O)c2ccc(/N=N/c3c(N)nc(N)nc3N)cc2)s1           FALSE
11  Nc1nc(N)c2c(n1)NC(=O)c1c(c3ccccc3n1Cc1ccc(Cl)cc1)C2           FALSE
12  CC(C)(C)n1c(=O)n(-c2ccccc2)n(C(C)(C)C)c1=O           FALSE
13  CCOC(=O)CNC1C(NC(C)=O)C(OC)OC2COC(c3ccccc3)OC21 (stereo not drawn)           FALSE
14  COC(=O)C1CC=C(SC(=O)c2ccccc2)N1C(=O)c1ccccc1 (stereo not drawn)           FALSE
15  O=C1NCN(c2ccccc2)C12CCN(CCCN1CCN(CCOC(c3ccc(F)cc3)c3ccc(F)cc3)CC1)CC2            TRUE
16  CSc1cc(-c2cccs2)sc1-c1cc(SC)c(-c2sc(-c3sc(-c4cccs4)cc3SC)cc2SC)s1           FALSE
17  CC(=O)c1sc2c(c1O)c(=O)n(-c1ccccc1)c(=S)n2-c1ccccc1           FALSE
18  CC1(C)CC2=NC(SSC3=C(C#N)C(c4ccc(Br)cc4)C4=C(O)CC(C)(C)CC4=N3)=C(C#N)C(c3ccc(Br)cc3)C2=C(O)C1 (stereo not drawn)           FALSE
19  O=[N+]([O-])c1cc(-c2nc(-c3ccccc3)c(-c3ccccc3)[nH]2)c(O)c([N+](=O)[O-])c1           FALSE
20  CCOC(=O)c1cc2c3c(c(C(C)=O)c(O)c2[nH]1)N(C(C)=O)CC3           FALSE
21  C/N=C1\CC2c3cc(OC)c(OC)cc3CCN2C2=C1C(=O)CC(C)(C)C2 (stereo not drawn)           FALSE
22  OC1(c2ccccc2)C2CCN(CC2)C1CN1CCOCC1 (stereo not drawn)           FALSE
23  COc1cccc2c1C(=O)c1c(O)c3c(c(O)c1C2=O)C[C@@](O)(C(C)O)C[C@@H]3OC1CC(N)C(O)C(C)O1 (stereo partly drawn)           FALSE

* * *

# Test system: SF-268
# experimental protocol: NCI tumour cell line growth inhibition, 48 h
Calls of active or inactive are those of the source. No stated cut-off is given here; in the data, active = GI50 up to about 1.1 µM and inactive = higher. Where a SMILES comes first, the peptide text is derived from it. [ ]: non-standard residue; d: D form. Phe(4-NO2) = N[CH](Cc1ccc([N+](=O)[O-])cc1)C(=O)O
Possible outcomes: active, inactive

compound	discrete label
Cc1cc(C)nc(NS(=O)(=O)c2ccc(NNc3c4ccccc4nc4c(C(=O)Nc5ccc(S(=O)(=O)Nc6ncccn6)cc5)cccc34)cc2)n1	inactive
C/C=C(\C)c1cc(=O)c2c(C)cc3c(c2o1)C(OC)(OC(C)=O)c1c(O)c(C2CC(C)(N(C)C)C(OC(C)=O)C(C)O2)cc(C2CC(N(C)C)C(OC(C)=O)C(C)O2)c1C3=O (stereo not given)	active
C=CCOC(=O)C1CCC(=O)N1C(=O)C(Cl)Cl (stereo not given)	inactive
COC(=O)CCC(NC(=O)C(CCC(=O)OC)NC(=O)C(CCC(=O)OC)NC(=O)C(CCC(=O)OC)NC(=O)C(CCC(=O)OC)NC(=O)C(Cc1ccc([N+](=O)[O-])cc1)NC(=O)C(CCC(=O)OC)NC(=O)C(CCC(=O)OC)NC(=O)C(CCC(=O)OC)NC(=O)C(CCC(=O)OC)NC(=O)C(CCC(=O)OC)NC(C)=O)C(N)=O (stereo not given) (Ac-E(OMe)E(OMe)E(OMe)E(OMe)E(OMe)[Phe(4-NO2)]E(OMe)E(OMe)E(OMe)E(OMe)E(OMe)-NH2; configuration not given here)	inactive
CCOC(=O)c1cnn2c1ncc1c(=O)n(NC(N)=O)ccc12	inactive
Cc1nc(-c2cccnc2)sc1C(=O)CC(=O)C(=O)Nc1cccc(NC(=O)C(=O)CC(=O)c2sc(-c3cccnc3)nc2C)n1	inactive
CC(=O)Nc1cc2nc3n(c2cc1C)CCC3OC(C)=O (stereo not given)	inactive
O=C1N/C(=N/N=C\C(O)C(O)C(O)C(O)CO)N/C1=C\c1ccc(Cl)cc1 (stereo not given)	inactive
C=C1CC2(CC(c3ccccc3OC)OC(c3ccccc3OC)C2)OC1=O (stereo not given)	inactive
c1ccc(-c2cc(-c3cccs3)c(-c3cccs3)o2)cc1	inactive

src = ChEMBL document CHEMBL1201862
